The following compounds are listed with their measured GI50 values.
- Test system: DMS-114
- protocolDetails: NCI tumour cell line growth inhibition, 48 h
Calls of active or inactive are those of the source. No stated cut-off is given here; in the data, active = GI50 up to about 1.1 µM and inactive = higher.

{"compound": "CCOc1ccc(NCC2CC/C(=C\\c3ccc(Cl)cc3)C2=O)cc1 (stereo not drawn)", "targetOfAssay": "DMS-114", "GI50": "26.4 µM (inactive)"}

State its GI50 on DMS-114: O=C1CCC2(O)c3ccccc3C2Cc2ccccc21 (stereo not drawn) > 100 µM (inactive)

State its GI50 on DMS-114: `COc1cccc(NC(=O)CSc2nnc(Cc3ccccc3)o2)c1` > 100 µM (inactive)
